The values you see were collected from patent US12077503B2.

Tested on: ryegrass, Italian (Italian ryegrass, Lolium multiflorum)
Assay: Test A preemergence
Assay type: in vivo
Conditions: Lolium multiflorum, pre-emergence, 240 h, 125 g ai/ha, preemergence; visual rating after approx. 10 d; 0 to 100 scale where 0 is no effect and 100 is complete control; read-out: Plant response rating, Ryegrass, Italian
The following compounds are shown together with reported pest or weed control at 125 g/ha values.

| Compound | Tested on | pest or weed control at 125 g/ha, % |
| --- | --- | --- |
| CN1C[C@H](c2cc(F)c(F)c(F)c2)[C@@H](C(=O)Nc2ccc(F)c(F)c2F)C1=O [Compound 757] | ryegrass, Italian (Italian ryegrass, Lolium multiflorum) | 30 |
| CN1C[C@H](c2cc(F)cc(F)c2)[C@@H](C(=O)Nc2ccc(F)cc2C(F)(F)F)C1=O [Compound 758] | ryegrass, Italian (Italian ryegrass, Lolium multiflorum) | 30 |
| CN1C[C@H](c2ccc(C(F)(F)F)cc2)[C@@H](C(=O)Nc2ccccc2C2CC2)C1=O [Compound 747] | ryegrass, Italian (Italian ryegrass, Lolium multiflorum) | 0 |
| CCc1ccc([C@H]2CNC(=S)[C@@H]2C(=O)Nc2cccc(F)c2C)cc1 [Compound 761] | ryegrass, Italian (Italian ryegrass, Lolium multiflorum) | 0 |
| CN1C[C@H](c2cc(F)cc(F)c2)[C@@H](C(=O)Nc2c(F)cccc2F)C1=O [Compound 759] | ryegrass, Italian (Italian ryegrass, Lolium multiflorum) | 0 |
| O=C1NC[C@H](c2ccc3c(c2)CCO3)[C@H]1C(=O)Nc1cccc(F)c1F [Compound 785] | ryegrass, Italian (Italian ryegrass, Lolium multiflorum) | 0 |
| O=C1NCC[C@H](c2ccc(Cl)cc2)[C@H]1C(=O)Nc1cccc(F)c1F [Compound 795] | ryegrass, Italian (Italian ryegrass, Lolium multiflorum) | 0 |
| CCc1cc(CC)cc([C@H]2CN(C)C(=O)[C@@H]2C(=O)Nc2ccccc2C(F)(F)F)c1 [Compound 737] | ryegrass, Italian (Italian ryegrass, Lolium multiflorum) | 40 |

* * *

Tested on: ryegrass, Italian (Italian ryegrass, Lolium multiflorum)
Assay: Test A preemergence
Format: in vivo
Conditions: Lolium multiflorum, pre-emergence, 240 h, 500 g ai/ha, preemergence; 0 to 100 scale where 0 is no effect and 100 is complete control; read-out: Ryegrass, Italian plant response rating

| Compound | pest or weed control at 500 g/ha |
| --- | --- |
| CN1CC(c2cccc(Br)c2)C(C(=O)Nc2ccccc2F)C1=O (stereo not drawn) | 50% |
| Cc1cccc([C@H]2CN(C)C(=O)[C@@H]2C(=O)Nc2ccc(F)c(F)c2F)c1 | 90% |
| CN1C[C@H](c2cccc(C(F)(F)F)c2)[C@@H](C(=O)Nc2ccc(F)cc2C(F)(F)F)C1=O | 50% |
| O=C1NC[C@H](c2ccc(F)c(OC(F)(F)C(F)F)c2)[C@H]1C(=O)Nc1cccc(F)c1F | 70% |
| COc1cc([C@H]2CN(C)C(=O)[C@@H]2C(=O)Nc2ccccc2S(C)(=O)=O)ccc1F | 0% |
| Cc1cc([C@H]2CN(C)C(=O)[C@@H]2C(=O)Nc2ccccc2F)no1 | 0% |

* * *

Test system: barnyardgrass (Echinochloa crus-galli)
Assay: Test A preemergence
Assay type: in vivo
Conditions: Echinochloa crus-galli, pre-emergence, 240 h, 31 g ai/ha, Preemergence; 0 to 100 scale where 0 is no effect and 100 is complete control; read-out: Barnyardgrass plant response rating
Test readout: pest or weed control at 31 g/ha (%)

| Compound | Unit of measurement | Readout number |
| --- | --- | --- |
| O=C(Nc1ccc(F)c(F)c1F)[C@H]1C(=O)N(CC(F)F)C[C@@H]1c1cccc(C(F)(F)F)c1 [Compound 1297] | % | 20 |
| Cc1ccc([C@H]2CN(C)C(=O)[C@@H]2C(=O)Nc2cnccc2C)cc1 [Compound 1070] | % | 0 |
| CN1C[C@H](c2ccc(Cl)c(F)c2)[C@@H](C(=O)Nc2ccc(F)c(F)c2F)C1=O [Compound 1266] | % | 80 |
| CN1C[C@H](c2ccc(C(F)(F)F)cc2)[C@@H](C(=O)Nc2cccnc2F)C1=O [Compound 1396] | % | 90 |

* * *

The following compounds are shown together with reported pest or weed control at 125 g/ha values.
Tested on: ragweed (common ragweed, Ambrosia elatior)
Test: Test A preemergence
Format: in vivo
Settings: Ambrosia artemisiifolia, pre-emergence, 240 h, 125 g ai/ha, preemergence; visual injury rating, 0 to 100 scale where 0 is no effect and 100 is complete control; approximately 10 d; read-out: Ragweed plant response rating

| Smiles structure | pest or weed control at 125 g/ha (%) |
| --- | --- |
| COc1cc(C(F)(F)F)ccc1[C@H]1CNC(=O)[C@@H]1C(=O)Nc1cccc(F)c1F | 30 |
| CN1CC[C@H](c2ccc(C(F)(F)F)cc2)[C@@H](C(=O)Nc2ccc(F)c(F)c2F)C1=O | 0 |
| CN1CC[C@H](c2ccc(C(F)(F)F)cc2)[C@@H](C(=O)Nc2ccccc2C(F)(F)F)C1=O | 0 |
| CN1C[C@H](c2ccc(C#N)c(F)c2)[C@@H](C(=O)Nc2ccccc2F)C1=O | 0 |

* * *

The following compounds are shown together with reported Kochia plant response rating (0 to 100 scale, 0 is no effect, 100 is complete control) values.
Tested on: Kochia (Kochia scoparia)
Test: Test A preemergence
Assay type: in vivo
Details: Preemergence, 500 g ai/ha, visual injury approx. 10 d
Text: […]
Test readout: Kochia plant response rating (0 to 100 scale, 0 is no effect, 100 is complete control)

| Compound | Readout number |
| --- | --- |
| O=C1NCC(c2ccc(C(F)(F)F)cc2F)C1C(=O)Nc1cccc(F)c1F (stereo not drawn) [Compound 475] | 70 |
| O=C(Nc1cccc(F)c1F)C1C(=S)NCC1c1cccc(C(F)(F)F)c1 (stereo not drawn) [Compound 454] | 0 |
| Cc1ccc(C2CN(C)C(=O)C2C(=O)Nc2ccccc2S(C)(=O)=O)c(F)c1 (stereo not drawn) [Compound 558] | 80 |
| CS(=O)(=O)c1ccccc1NC(=O)C1C(=O)NCC1c1ccc(C2CC2)cc1 (racemic) [Compound 502] | 70 |
| Cc1ccc(C2CNC(=O)C2C(=O)Nc2ccc(F)c(C)c2F)cc1F (stereo not drawn) [Compound 462] | 70 |
| CC(=O)c1ccccc1NC(=O)C1C(=O)NCC1c1ccc(F)c(F)c1 (stereo not drawn) [Compound 418] | 0 |
| CCc1ccc(C2CNC(=O)C2C(=O)Nc2cccc(F)c2F)cc1 (stereo not drawn) [Compound 467] | 50 |
| Cc1c(F)ccc(NC(=O)C2C(=O)NCC2c2cc(F)cc(F)c2)c1F (stereo not drawn) [Compound 461] | 50 |
| O=C1NCC(c2ccc(Br)cc2)C1C(=O)Nc1cccc(F)c1F (stereo not drawn) [Compound 446] | 50 |
| Cc1ccc(C2CN(C)C(=O)C2C(=O)Nc2ccccc2F)c(F)c1 (stereo not drawn) [Compound 560] | 80 |
| COCc1cccc(C2CNC(=O)C2C(=O)Nc2cccc(F)c2F)c1 (stereo not drawn) [Compound 497] | 50 |
| Cc1ccc(C2CN(C)C(=O)C2C(=O)Nc2ccccc2F)cc1F (stereo not drawn) [Compound 465] | 80 |
| CCc1cccc(C2CN(C)C(=O)C2C(=O)Nc2cccc(F)c2F)c1 (stereo not drawn) [Compound 568] | 80 |
| O=C1NCC(c2cc(C(F)(F)F)cc(C(F)(F)F)c2)C1C(=O)Nc1ccccc1F (stereo not drawn) [Compound 587] | 0 |
| O=C1NCC(c2cc(F)cc(C(F)(F)F)c2)C1C(=O)Nc1ccccc1F (stereo not drawn) [Compound 489] | 50 |
| CN1CC(c2ccc(Cl)cc2)C(C(=O)Nc2cccc(F)c2F)C1=O (stereo not drawn) [Compound 434] | 80 |
| O=C1NCC(c2ccc(OC(F)F)cc2)C1C(=O)Nc1cccc(F)c1F (stereo not drawn) [Compound 561] | 90 |
| O=C1NCC(c2ccc(Oc3ccccc3)cc2)C1C(=O)Nc1ccc(F)cc1F (racemic) [Compound 535] | 0 |

* * *

The following molecules are shown together with reported pest or weed control at 125 g/ha values.
Tested on: pigweed (Amaranthus retroflexus)
Test: Test A preemergence
Type: in vivo
Settings: Amaranthus retroflexus, pre-emergence, 240 h, 125 g ai/ha, Preemergence, visual injury rating after approximately 10 d; read-out: Pigweed plant response rating (0 to 100 scale, 0 is no effect, 100 is complete control)

| Molecule | Tested on | pest or weed control at 125 g/ha |
| --- | --- | --- |
| CN1CC[C@H](c2ccccc2C(F)(F)F)[C@@H](C(=O)Nc2ccc(F)c(F)c2F)C1=O [Compound 1010] | pigweed (Amaranthus retroflexus) | 0% |
| Cc1cc([C@H]2CN(C)C(=O)[C@@H]2C(=O)Nc2cccc(F)c2F)cc(C)c1Br [Compound 1024] | pigweed (Amaranthus retroflexus) | 30% |
| Cc1ccc([C@H]2CNC(=S)[C@@H]2C(=O)Nc2ccccc2F)cc1 (racemic) [Compound 945] | pigweed (Amaranthus retroflexus) | 0% |
| O=C1NC[C@H](c2cc(C(F)(F)F)ccn2)[C@H]1C(=O)Nc1ccccc1F [Compound 948] | pigweed (Amaranthus retroflexus) | 0% |
| CN1CC[C@H](c2ccccc2)[C@@H](C(=O)Nc2ccccc2F)C1=O [Compound 1032] | pigweed (Amaranthus retroflexus) | 0% |
| CSc1ccccc1NC(=O)[C@H]1C(=O)N(C)C[C@@H]1c1ccc(C(F)(F)F)cn1 [Compound 1051] | pigweed (Amaranthus retroflexus) | 40% |
| O=C1NC[C@H](c2ccc3c(c2)CCC3)[C@H]1C(=O)Nc1cccc(F)c1F [Compound 1046] | pigweed (Amaranthus retroflexus) | 0% |
| O=C1NC[C@H](c2ccc3c(c2)CCC3)[C@H]1C(=O)Nc1ccccc1F [Compound 1045] | pigweed (Amaranthus retroflexus) | 0% |
| O=C(Nc1cccc(Cl)c1F)[C@H]1C(=O)N(C2CC2)CC[C@@H]1c1ccc(F)cc1 [Compound 1006] | pigweed (Amaranthus retroflexus) | 0% |
| CN1CC[C@H](c2ccccc2C(F)(F)F)[C@@H](C(=O)Nc2cccc(F)c2F)C1=O [Compound 1009] | pigweed (Amaranthus retroflexus) | 0% |
